experiment: MM1S cell viability effects, profiling panel, calcein-AM fluorescence, 48 h, basal (AID 1165); conditions: higher = more signal;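 also: viability of MM1S multiple myeloma cells under basal unstimulated conditions; test concentration not given here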
Is z-score at least 0.02? Then rule met. If not, rule not met.

O=C1[C@H]2[C@H]3[C@H](O)[C@H](O)CC(=NOC[C@@H](O)COCc4ccco4)[C@@H]3CC[C@H]2C(=O)N1C1CCCCC1 :: rule met

stdin: Would you say "O=C1[C@H]2[C@H]3[C@H](O)[C@H](O)CC(=NO[C@@H]4O[C@H](CO)[C@@H](O)[C@H](O)[C@H]4O)[C@H]3CC[C@H]2C(=O)N1c1ccc(F)cc1F" shows z-score at minimum 0.02?
stdout: rule met

stdin: Would you say "CC(CCN1CCc2nc(-c3ccccc3)c(-c3ccccc3)cc2C1)=NO[C@H](C)c1cn([C@H](CO)Cc2ccccc2)nn1" shows z-score at minimum 0.02?
stdout: rule not met

stdin: Would you say COC(=O)[C@H](C)NC(=O)CCC1CC(OC(=O)NCCc2ccc(F)cc2)CC2(CCCC(COC(=O)NCc3ccccc3)O2)O1 (some centres not stated) shows z-score at minimum 0.02?
stdout: rule met

stdin: Would you say "CC1(C)O[C@H]2O[C@H]([C@H](O)CON=C3[C@H]4CCn5c(=O)n(-c6ccccc6)c(=O)n5[C@H]4[C@H](O)[C@@H]4O[C@H]34)[C@H](O)[C@H]2O1" shows z-score at minimum 0.02?
stdout: rule met

stdin: Would you say "CC(C)[C@@H](OCc1ccccc1)[C@H](C)C=NO[C@@H](C)c1cn([C@H](CO)Cc2ccccc2)nn1" shows z-score at minimum 0.02?
stdout: rule not met

stdin: Would you say "O=C1[C@H]2[C@H]3[C@H](O)[C@H](O)CC(=NOC[C@@H](O)COCc4ccco4)[C@@H]3CC[C@H]2C(=O)N1Cc1ccc2c(c1)OCO2" shows z-score at minimum 0.02?
stdout: rule met
